Ref: PubChem BioAssay

Each entry below lists one item and its recorded composite z-score value.
- test_name: binders of probe aFST on microarray, primary screen, stem cell growth factor project, biochemical, small-molecule microarray, fluorescence 635/667 (AID 1086);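 note: score merges 667 nm fluorescence with signal-to-noise of each printed compound spot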
- experimental_conditions: higher = more signal
Answer as a number with no unit attached.

Examples with their reported composite z-score follow.
C=CC[C@@H](OC(=O)Nc1ccc(SC)cc1)c1ccc(OCCO)cc1	-0.464
C=CCNC(=O)[C@@H]1[C@H]2C(=O)O[C@H](c3ccccc3)[C@H](c3ccccc3)N2[C@H](c2ccc(O)cc2)[C@@]12C(=O)N(C(=O)OCCOC)c1ccc(C#Cc3ccc(OC)cc3)cc12	0.316
COc1ccc([Si](C)(C)[C@H]2[C@H](CC(=O)N(CCO)Cc3ccccc3)O[C@@]3(C(=O)N(Cc4ccc(N5CCOC5=O)cc4)c4ccccc43)[C@@H]2C)cc1	-0.158
C=CCC(OC(C)=O)[C@@H]1[C@@H](N(Cc2ccc(-c3cccc(C(F)(F)F)c3)o2)C(=O)c2ccc(-c3ccccc3)cc2)c2cc(OCCCO)ccc2N1C(=O)Cc1ccc(OC)cc1 (stereo partly specified)	0.258
COCCOC(=O)N1C(=O)[C@@]2(c3cc(C#CC4(O)CCCCCC4)ccc31)[C@H](c1ccc(O)cc1)N1[C@H](c3ccccc3)[C@H](c3ccccc3)OC(=O)[C@H]1[C@@H]2C(N)=O	0.351

Next compound, composite z-score to be filled in.
[Q] Could you tell me which composite z-score is on file for COC(=O)C(CC#Cc1ccc2c(c1)[C@]1(C(=O)N2)[C@H](C(N)=O)[C@H]2C(=O)O[C@H](c3ccccc3)[C@H](c3ccccc3)N2[C@@H]1c1ccc(O)cc1)C(=O)OC ?
[A] -0.882
